Test system: M14 melanoma
Assay: NCI tumour cell line growth inhibition, 48 h
RESULT_TYPE: TGI

IN: Sample "O=C(O)CN1CCNCCN(CC(=O)O)CC1" — what was its TGI?
OUT: > 100 µM

IN: Entry "O=C1c2ccccc2C(=O)N1/N=C\c1ccc(Br)cc1" has what TGI?
OUT: > 100 µM

IN: Which value of TGI has been reported for CC1(C)SC2C(C(=O)O)N=C(Cc3ccccc3)N2C1C(=O)O (stereo not given) in the records?
OUT: > 100 µM

IN: Fill in the blank: the reported TGI of O=C1C2CC3C(CC2C(=O)[N]1[Sn]([c]1ccccc1)([c]1ccccc1)[c]1ccccc1)C1(Cl)C(Cl)=C(Cl)C3(Cl)C1(Cl)Cl (stereo not given) is ____.
OUT: 0.345 µM

IN: For the compound shown here, "Cc1cc(C)c2c(=O)cc(-c3ccc(Cl)cc3)[nH]c2n1" , give the reported TGI.
OUT: > 100 µM

IN: So what's the measured TGI for this one? "N#CN=Nc1cc(Cl)c(N=NC#N)cc1Cl"
OUT: > 100 µM

IN: // query TGI value for entry CCC1(O)CC(OC2CC(N(C)C)C(OC3CC(O)C(OC4OC(C)C(=O)C=C4N)C(C)O3)C(C)O2)c2c(O)c3c(c(O)c2C1C(=O)OC)C(=O)c1cccc(O)c1C3=O (stereo not given)
OUT: 0.0268 µM

IN: Request the reported TGI associated with "O=C1C(=O)c2cc([N+](=O)[O-])ccc2-c2ccccc21"
OUT: 3.5 µM

IN: Value lookup for TGI; key = "C/C(CC(=O)CCCC(=O)Nc1ccc(Cl)cc1Cl)=N/NC(=O)CC#N"
OUT: > 100 µM

IN: What does the data say about its TGI? Entry: c1ccc(COCC23CCN(Cc4ccccc4)C(CC(OCc4ccccc4)C2)S3)cc1 (stereo not given)
OUT: > 100 µM

IN: Field request: TGI | item: "COc1cc2c(c(OC)c1OC)-c1ccc([O-])c(=O)cc1[C@@H](NC(C)=O)CC2.COc1cc2c(c(OC)c1OC)-c1ccc([O-])c(=O)cc1[C@@H](NC(C)=O)CC2.[Cu+2]"
OUT: > 100 µM

IN: Report TGI for "COC(=O)[C@H](CCSC)NC(=O)c1ccc(CNC(=O)/C=C/c2cccc(Oc3ccccc3)c2)cc1" please.
OUT: 26.8 µM

IN: Field request: TGI | item: "CC(=O)c1ccc(-c2oc(-c3ccccc3)cc2-c2ccc3c(c2)OCO3)s1"
OUT: > 100 µM

IN: Field request: TGI | item: "Cc1nnc(Nc2ccc(Cl)cc2)o1"
OUT: > 10 µM

IN: Report TGI for "Cc1cc(S(=O)(=O)Nc2nc(N)n(-c3cnc4ccccc4n3)n2)c(S)cc1Cl" please.
OUT: > 100 µM

====

Field: TGI. Provide a value for each of the molecules that follow.
Test system: HCT-15 colon
Assay: NCI tumour cell line growth inhibition, 48 h

IN: Find the recorded TGI belonging to "NC(=S)SCCC(=O)O" and report it.
OUT: > 100 µM

IN: What measured TGI goes with "COC(=O)CCc1ccc2c(c1)CCC2" ?
OUT: > 100 µM

IN: Which measured TGI value corresponds to O=C1c2ccccc2C(=O)c2c(OCC3CO3)ccc(OCC3CO3)c21 (configuration not stated) ?
OUT: 4.5 µM

IN: Would you mind telling me what TGI value was observed for "COc1ccccc1/C=C/C(=O)c1sc(-c2cccnc2)nc1C" ?
OUT: > 100 µM

IN: Give its TGI value. Item: "CC1=CC2=C(OCO1)C(=O)c1ccccc1C2=O"
OUT: 51.6 µM

IN: For "O=C1C=C(Nc2ccccc2)c2ncccc2C1=O" , what is its reported TGI?
OUT: 1.28 µM

IN: Given the molecule "CC1=C(C)SC(=C2Sc3c(n(C)c(=O)[nH]c3=O)S2)S1" , what is its reported TGI?
OUT: > 100 µM
